The reported measurements were obtained from patent US10941182.

Target: T1, rat APJ receptor (rat, UniProt Q9JHG3 1-377)
T1 sequence (looked up): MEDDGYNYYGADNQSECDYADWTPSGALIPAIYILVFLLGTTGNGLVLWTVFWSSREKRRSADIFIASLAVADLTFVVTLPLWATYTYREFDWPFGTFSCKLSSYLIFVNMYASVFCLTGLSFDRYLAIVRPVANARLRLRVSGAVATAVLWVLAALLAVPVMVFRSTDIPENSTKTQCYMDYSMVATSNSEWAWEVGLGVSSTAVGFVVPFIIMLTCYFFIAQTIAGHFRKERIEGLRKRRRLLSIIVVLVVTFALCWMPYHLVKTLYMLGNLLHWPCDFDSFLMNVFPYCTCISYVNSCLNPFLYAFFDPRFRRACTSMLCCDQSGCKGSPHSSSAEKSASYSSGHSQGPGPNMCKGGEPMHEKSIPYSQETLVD
Test: cell-based or functional assay
Starred links: 1 amine or outer side, 2 acyl side, 3 side chain; linkers in the order of their positions; H or OH if unused. Non-standard residues stand in square brackets, D forms with d. Primed or numbered codes have the meaning given here. *: point of attachment. Bh4ClF = β-4-chloro-L-homophenylalanine, O=C(C[C@H](Cc1ccc(Cl)cc1)N[*:1])[*:2]; AC4Abu = α-carboxy-4-aminobutyric acid, O=C(C(CCN[*:1])C(=O)[*:3])[*:2]; dBip = N[C@H](Cc1ccc(-c2ccccc2)cc1)C(=O)O; Oic = O=C(O)[C@@H]1C[C@@H]2CCCC[C@@H]2N1; Phe(4-Cl) = N[C@@H](Cc1ccc(Cl)cc1)C(=O)O; Phe(4-I) = N[C@@H](Cc1ccc(I)cc1)C(=O)O; γGlu = O=C(O)[C@H](CCC(=O)[*:2])N[*:1]; 2Nal = N[C@@H](Cc1ccc2ccccc2c1)C(=O)O; NMeR = CN[C@@H](CCCNC(=N)N)C(=O)O; Tridecanoyl = CCCCCCCCCCCCC(=O)*; hArg = N=C(N)NCCCC[C@H](N)C(=O)O; Cha = N[C@@H](CC1CCCCC1)C(=O)O; NMeL = CN[C@@H](CC(C)C)C(=O)O; αMeL = CC(C)C[C@](C)(N)C(=O)O; αMeP = C[C@@]1(C(=O)O)CCCN1; AC4Abu″ = not defined here; β3hP = O=C(O)C[C@@H]1CCCN1; Nle = CCCC[C@H](N)C(=O)O; Pip′ = not defined here; AEEA = NCCOCCOCC(=O)O; Aib = CC(C)(N)C(=O)O; BLeu = β-leucine

{"columns": ["binder", "EC50 Rat APJ Receptor (GTPγS assay) / pM"],
 "data": [
  ["Tridecanoyl-[γGlu][AEEA][AEEA][dQ]R[Pip′][hArg][BLeu]SHKG[Oic][Nle][Aib][Phe(4-Cl)]-OH [Apelin polypeptide SEQ ID NO: 521]", 3210],
  ["Tridecanoyl-[γGlu][AEEA][AEEA][dQ]R[αMeP][Nle][BLeu]SHKG[Oic][Nle][αMeP][Phe(4-Cl)]-OH [Apelin polypeptide SEQ ID NO: 523]", 71900],
  ["XXXQRPRLSHKGPXPF ({TDA}[AC4Abu][Aeea][Aeea]QRP[NMeArg]LSHKGP[Nle]P[4-Cl-F]{COOH}) [Apelin polypeptide SEQ ID NO: 287]", 242],
  ["Tridecanoyl-[γGlu][AEEA][AEEA][dQ][hArg]P[dR][Cha]SHKG[Oic][Nle]P[Bh4ClF]-OH [Apelin polypeptide SEQ ID NO: 370]", 23700],
  ["Tridecanoyl-[γGlu][AEEA][AEEA][dQ]R[αMeP][hArg][BLeu]SHKG[Pip′][Nle][Phe(4-Cl)]-OH [Apelin polypeptide SEQ ID NO: 501]", 68200],
  ["Tridecanoyl-[AC4Abu″][AEEA][AEEA]Q[hArg]P[NMeR][Cha]SHKGP[Nle]P[Phe(4-Cl)]-OH (reading uncertain) [Apelin polypeptide SEQ ID NO: 408]", 184],
  ["Tridecanoyl-[AC4Abu″][AEEA][AEEA]QRP[NMeR][Cha]SHKG[αMeP][Nle]P[Phe(4-Cl)]-OH (reading uncertain) [Apelin polypeptide SEQ ID NO: 418]", 253],
  ["XXXQRPRLSHKGPXPF ({TDA}[AC4Abu][Aeea][Aeea]QRP[NMeArg][aMeLeu]SHKGP[Nle]P[4-Cl-F]{COOH}) [Apelin polypeptide SEQ ID NO: 457]", 56.4],
  ["Tridecanoyl-[γGlu][AEEA][AEEA][dQ]R[αMeP][hArg][BLeu]SHKG[Oic][Nle][β3hP][Phe(4-Cl)]-OH [Apelin polypeptide SEQ ID NO: 556]", 69100],
  ["XXXQRPRLSHKGPXPF ({TDA}[AC4Abu][Aeea][Aeea]QRP[hArg]LSHKGP[Nle]P[4-Cl-F]{COOH}) [Apelin polypeptide SEQ ID NO: 355]", 60],
  ["XXXQRPRLSHKGPXPF ({TDA}[AC4Abu][Aeea][Aeea]QRP[NMeArg][BLeu]SHKGP[Nle]P[4-Cl-F]{COOH}) [Apelin polypeptide SEQ ID NO: 458]", 120],
  ["XXXQRPRLSHKGPXPF ({TDA}[AC4Abu][Aeea][Aeea]Q[hArg]P[NMehArg]LSHKGP[Nle]P[4-Cl-F]{COOH}) [Apelin polypeptide SEQ ID NO: 483]", 229],
  ["XXXQRPRLSHKGPXPF ({TDA}[AC4Abu][Aeea][Aeea]QRP[NMeArg]LS[rHis]KGP[Nle]P[4-Cl-F]{COOH}) [Apelin polypeptide SEQ ID NO: 469]", 1330],
  ["Tridecanoyl-[AC4Abu][AEEA][AEEA]QRP[hArg][αMeL]SHKGP[Nle]P[2Nal]-OH (SMILES CCCCCCCCCCCCC(=O)NCCC(C(=O)O)C(=O)NCCOCCOCC(=O)NCCOCCOCC(=O)N[C@@H](CCC(N)=O)C(=O)N[C@@H](CCCNC(=N)N)C(=O)N1CCC[C@H]1C(=O)N[C@@H](CCCCNC(=N)N)C(=O)N[C@@](C)(CC(C)C)C(=O)N[C@@H](CO)C(=O)N[C@@H](Cc1c[nH]cn1)C(=O)N[C@@H](CCCCN)C(=O)NCC(=O)N1CCC[C@H]1C(=O)N[C@@H](CCCC)C(=O)N1CCC[C@H]1C(=O)N[C@@H](Cc1ccc2ccccc2c1)C(=O)O) [Apelin polypeptide SEQ ID NO: 404]", 362],
  ["XXXQRPRLSHKGPXPF ({TDA}[AC4Abu][Aeea][Aeea]QRP[NMeArg][BhLeu]SHKGP[Nle]P[4-Cl-F]{COOH}) [Apelin polypeptide SEQ ID NO: 422]", 196],
  ["Tridecanoyl-[γGlu][AEEA][AEEA][dR]QRP[hArg][NMeL]SHKG[Pip′][Phe(4-I)]P[dBip]-OH [Apelin polypeptide SEQ ID NO: 565]", 2820],
  ["XXXQRPRLSHKGPXPF ({TDA}[AC4Abu][Aeea][Aeea]QRP[NMeArg][NMeLeu]SHKGP[Nle]P[4-Cl-F]{COOH}) [Apelin polypeptide SEQ ID NO: 459]", 230],
  ["Tridecanoyl-[AC4Abu][AEEA][AEEA]QRP[NMeR][Cha]SHKG[Aib][Nle]P[Phe(4-Cl)]-OH (SMILES CCCCCCCCCCCCC(=O)NCCC(C(=O)O)C(=O)NCCOCCOCC(=O)NCCOCCOCC(=O)N[C@@H](CCC(N)=O)C(=O)N[C@@H](CCCNC(=N)N)C(=O)N1CCC[C@H]1C(=O)N(C)[C@@H](CCCNC(=N)N)C(=O)N[C@@H](CC1CCCCC1)C(=O)N[C@@H](CO)C(=O)N[C@@H](Cc1c[nH]cn1)C(=O)N[C@@H](CCCCN)C(=O)NCC(=O)NC(C)(C)C(=O)N[C@@H](CCCC)C(=O)N1CCC[C@H]1C(=O)N[C@@H](Cc1ccc(Cl)cc1)C(=O)O) [Apelin polypeptide SEQ ID NO: 414]", 3780]
]}
